Molecular target: T1, LRP2 CR89 (human, UniProt P98164 1025-1102)
T1 construct: domain: CR8 and CR9; also called YVWR; L2 CR89; not shown: N-terminal hexahistidine and S-peptide from pET30(+)a
T1 sequence (P98164 1025-1102): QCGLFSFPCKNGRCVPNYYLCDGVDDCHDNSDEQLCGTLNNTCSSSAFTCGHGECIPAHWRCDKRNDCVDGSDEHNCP
Experiment: solid-phase assay, coated CR protein, anti-RAP, OD450
Protocol: Percent of maximum binding is the ratio of the OD at the highest concentration tested for each ligand and the highest OD measured for all such ligands at that concentration. Solid phase binding assays-Purified, refolded CR protein (1 μg) was bound to Nunc Maxisorp™ 96-well plates in TBS pH 8 supplemented with 5 mM CaCl₂ (TBSC) overnight at 4° C. […] Wells were washed with TBSTC and bound ligands detected with polyclonal anti-RAP (BP41/42, 1:1,000, BioMarin). […]
Property: % max (percent of maximum binding); scope: individual binders
Give the value, in units of %, as a plain number.

>  <binder>
RAP d3 E251K, K270E (ligand, forward mutant of wild-type RAP d3; also called RAP E251K, K270E; not shown: vector-encoded N-terminal tags of pET30(+)a) LDRLRRVSHQGYSTEAEFEEPRVIDLWDLEQSANLTDKELEAFREELKHFKAKIEKHNHYQKQLEIAHEELRHAESVGDGERVSRSREKHALLEGRTKELGYTVKKHLQDLSGRISRAR

>  <% max (percent of maximum binding) / %>
2

$$$$
>  <binder>
wild-type RAP d3 (ligand, expressed in E. coli from pET30(+)a; not shown: vector-encoded N-terminal tags of pET30(+)a (hexahistidine and S-peptide, as stated for the CR constructs)) LDRLRRVSHQGYSTEAEFEEPRVIDLWDLEQSANLTDKELEAFREELKHFEAKIEKHNHYQKQLEIAHEKLRHAESVGDGERVSRSREKHALLEGRTKELGYTVKKHLQDLSGRISRAR

>  <% max (percent of maximum binding) / %>
5

$$$$
>  <binder>
RAP d3 E217K (ligand, forward mutant of wild-type RAP d3; also called RAP E217K; not shown: vector-encoded N-terminal tags of pET30(+)a) LDRLRRVSHQGYSTEAKFEEPRVIDLWDLEQSANLTDKELEAFREELKHFEAKIEKHNHYQKQLEIAHEKLRHAESVGDGERVSRSREKHALLEGRTKELGYTVKKHLQDLSGRISRAR

>  <% max (percent of maximum binding) / %>
5

$$$$

Consider the record given below.
Prompt: Dear colleague, I am looking for the recorded % max (percent of maximum binding) of the following binder: RAP d3 E251K, K256A, K270E (ligand, forward mutant of wild-type RAP d3; also called RAP E251K, K256A, K270E; not shown: vector-encoded N-terminal tags of pET30(+)a) LDRLRRVSHQGYSTEAEFEEPRVIDLWDLEQSANLTDKELEAFREELKHFKAKIEAHNHYQKQLEIAHEELRHAESVGDGERVSRSREKHALLEGRTKELGYTVKKHLQDLSGRISRAR
Completion: 40
